Values were extracted from paper PMC12416549.

- MEASURED TARGET: T1, TNFR1 (Homo sapiens, UniProt P19438)
- T1 chain: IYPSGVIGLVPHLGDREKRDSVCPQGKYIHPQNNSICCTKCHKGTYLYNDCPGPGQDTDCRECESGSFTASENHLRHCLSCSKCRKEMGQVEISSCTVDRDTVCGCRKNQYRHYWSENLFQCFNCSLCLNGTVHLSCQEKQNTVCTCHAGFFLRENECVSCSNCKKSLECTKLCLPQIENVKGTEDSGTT
- ASSAY EXPLANATION: yeast display SC50
Listing of entries alongside the reported apparent Kd (screen).
READOUT LABEL: apparent Kd (screen) (nM)

binder="K85V (designed binder) SMEEEVEKAAKEYEKKKKEAIEKHLEKLKAKDKEAAERFLKELEEAAKEYAKDEAKTMSEEEAKRRAKKYKEKVLLSELSEEEQVEIKEAEEKLVRTILKYVEEAAK" endpoint_result=1.05
binder="L99Y (designed binder) SMEEEVEKAAKEYEKKKKEAIEKHLEKLKAKDKEAAERFLKELEEAAKEYAKDEAKTMSEEEAKRRAKKYKEKVLLSELSEEEQKEIKEAEEKLVRTIYKYVEEAAK" endpoint_result=9.41
